target: dopamine D2 receptor (Rattus norvegicus, UniProt P61169); construct: from tissue; experiment: Inhibition of the binding of [3H]Spiperone to D2 receptors; details: inhibition of [3H]Spiperone binding; read-out: D2-Receptor IC50
Sequence (P61169 whole entry): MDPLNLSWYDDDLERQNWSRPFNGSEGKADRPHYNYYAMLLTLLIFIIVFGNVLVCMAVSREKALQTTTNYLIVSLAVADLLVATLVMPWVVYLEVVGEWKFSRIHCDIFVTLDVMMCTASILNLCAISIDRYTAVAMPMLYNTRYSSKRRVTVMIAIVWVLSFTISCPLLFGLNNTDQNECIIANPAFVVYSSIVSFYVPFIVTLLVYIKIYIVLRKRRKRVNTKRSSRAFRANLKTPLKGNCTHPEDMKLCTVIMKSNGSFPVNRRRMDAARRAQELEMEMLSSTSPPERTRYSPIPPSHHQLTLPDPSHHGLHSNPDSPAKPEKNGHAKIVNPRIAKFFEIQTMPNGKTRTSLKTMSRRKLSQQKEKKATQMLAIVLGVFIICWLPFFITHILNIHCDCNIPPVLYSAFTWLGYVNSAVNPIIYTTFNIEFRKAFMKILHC
Listed here: items and their measured IC50.
Give just the numeric value; nM need not be written.

Worked set:
{"compound": "c1cc2cc(CN3CCN(c4ccc5[nH]ccc5c4)CC3)ccc2[nH]1 [Compound 1b]", "testedTarget": "dopamine D2 receptor (Rattus norvegicus, UniProt P61169)", "IC50 (nM)": 1000}
{"compound": "c1ccc(N2CCN(Cc3ccc4[nH]ccc4c3)CC2)cc1 [Compound 1d]", "testedTarget": "dopamine D2 receptor (Rattus norvegicus, UniProt P61169)", "IC50 (nM)": 940}

// next item, IC50 requested
**Q:** Which value of IC50 has been reported for Clc1ccc(C2=CCN(Cc3ccc4[nH]ccc4c3)CC2)cc1 [Compound 1e] in the records?
**A:** 190
